target: ALK2 R206H (GST-tagged mutant ALK2) (Homo sapiens, UniProt Q04771, R206H); construct: purchased Carna Bioscience or ThermoFisher 09-148 or PV6232; assay: ALK binding assay (LANTHASCREEN TR-FRET competitive binding, displacement of Kinase Tracer 178); conditions: ALK2 R206H, LANTHASCREEN TR-FRET competitive binding; read-out: Binding Assay (IC50)
Sequence (Q04771 21-509 R206H): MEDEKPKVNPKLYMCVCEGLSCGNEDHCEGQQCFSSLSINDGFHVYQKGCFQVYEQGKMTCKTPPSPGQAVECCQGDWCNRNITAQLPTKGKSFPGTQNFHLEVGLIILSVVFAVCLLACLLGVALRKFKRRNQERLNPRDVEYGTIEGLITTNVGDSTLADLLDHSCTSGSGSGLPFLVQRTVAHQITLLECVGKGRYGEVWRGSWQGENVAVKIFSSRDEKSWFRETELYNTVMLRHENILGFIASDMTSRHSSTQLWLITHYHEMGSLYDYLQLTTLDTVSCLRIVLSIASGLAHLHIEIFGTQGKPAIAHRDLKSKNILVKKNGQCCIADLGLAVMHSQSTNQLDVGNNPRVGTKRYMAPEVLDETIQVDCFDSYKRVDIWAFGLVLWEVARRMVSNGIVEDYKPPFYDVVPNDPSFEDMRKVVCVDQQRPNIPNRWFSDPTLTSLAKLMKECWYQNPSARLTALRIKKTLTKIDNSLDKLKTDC
pIC50: −log10 of the molar value.

compound: COC[C@H](C)N1CCC(OC)(c2ccc(-c3cc4c(N5CCN(C(=O)C6CC6)CC5)ccnn4c3)nc2)CC1 [Compound 711]
pIC50: > 8.00

compound: CC(C)NC(=O)N1CCN(c2ccnn3cc(-c4ccc([C@@]5(O)CCN(C(C)C)C5)cc4)cc23)CC1 [Compound 595]
pIC50: > 8.00

compound: CCN1CCN(c2ccc(-c3cc4c(N5CCN(C(=O)N6CCCC6)CC5)ccnn4c3)cc2)CC1 [Compound 327]
pIC50: 7.30 to 8.00

compound: CCNC(=O)N1CCN(c2ccnn3cc(-c4ncc(N5CCN(C(C)C)CC5)cn4)cc23)CC1 [Compound 553]
pIC50: 7.30 to 8.00

compound: COC[C@@H](C)N1CCC(OC)(c2ccc(-c3cc4c(N5CCN(C(=O)[C@H]6C[C@H](C#N)C6)CC5)ccnn4c3)cc2)CC1 [Compound 746]
pIC50: > 8.00

compound: CCN1CCN(c2ccc(-c3cc4c(N5CCN(C(=O)N6CC7(COC7)C6)CC5)ccnn4c3)cc2)CC1 [Compound 417]
pIC50: 7.30 to 8.00

compound: CC(C)N1CCC[C@@H](c2ccc(-c3cc4c(N5CCN(C(=O)OC6COC6)CC5)ccnn4c3)cc2F)C1 [Compound 692]
pIC50: > 8.00

compound: CC(C)N1CCC(c2ccc(-c3cc4c(N5CCN(C(=O)Nc6ccccc6F)CC5)ccnn4c3)cc2)CC1 [Compound 851]
pIC50: > 8.00

compound: CC(C)N1CCC(c2ccc(-c3cc4c(N5CCN(C(=O)C6CC6)CC5)ccnn4c3)cc2)(C(F)(F)F)CC1 [Compound 727]
pIC50: > 8.00

compound: O=C(C1CC1)N1CCN(c2ccnn3cc(-c4ccc(N5CCN6CCCC6C5)cc4)cc23)CC1 (centres unmarked) [Compound 243]
pIC50: > 8.00

compound: CC(C)NC(=O)N1CCN(c2ccnn3cc(-c4cnn([C@@H]5CCCN(C(C)C)C5)c4)cc23)CC1 [Compound 556]
pIC50: > 8.00

compound: CCOC1(c2ccc(-c3cc4c(N5CCN(C(=O)OC6COC6)CC5)ccnn4c3)nc2)CCN(C2COC2)CC1 [Compound 875]
pIC50: > 8.00

compound: CC(C)N1CC[C@@H](OC(F)F)[C@H](c2ccc(-c3cc4c(N5CCN(C(=O)C6CC6)CC5)ccnn4c3)cc2)C1 [Compound 849]
pIC50: > 8.00

compound: CC(C)(O)C(N)c1ccc(-c2cc3c(N4CCN(C(=O)OC5COC5)CC4)ccnn3c2)cc1 (centres unmarked) [Compound 779]
pIC50: > 8.00

----------
target: ALK2 R206H (GST-tagged mutant ALK2) (Homo sapiens, UniProt Q04771, R206H); construct: purchased Carna Bioscience or ThermoFisher 09-148 or PV6232; test: ALK binding assay (LANTHASCREEN TR-FRET competitive binding, displacement of Kinase Tracer 178); conditions: ALK2 R206H, LANTHASCREEN TR-FRET competitive binding; read-out: Binding Assay (IC50)
pIC50: −log10 of the molar value.
The following compounds are shown together with reported pIC50 values.
readout-name: pIC50

compound: CC(C)NC(=O)N1CCN(c2ccnn3cc(-c4cnn([C@H]5CCCNC5)c4)cc23)CC1 [Compound 470]
target-or-system: ALK2 R206H (GST-tagged mutant ALK2) (Homo sapiens, UniProt Q04771, R206H)
readout-name: pIC50
assay-result: > 8.00
--
compound: C[C@@H]1CN(c2ccnn3cc(-c4ccc(N5CCNCC5)nc4)cc23)CCN1C(=O)C1CC1 [Compound 170]
target-or-system: ALK2 R206H (GST-tagged mutant ALK2) (Homo sapiens, UniProt Q04771, R206H)
readout-name: pIC50
assay-result: 7.30 to 8.00
--
compound: CCN1CCN(c2ccc(-c3cc4c(N5CCN(C(=O)C6CC(F)(F)C6)CC5)ccnn4c3)cc2)CC1 [Compound 402]
target-or-system: ALK2 R206H (GST-tagged mutant ALK2) (Homo sapiens, UniProt Q04771, R206H)
readout-name: pIC50
assay-result: > 8.00
--
compound: CCN1CCN(c2ccc(-c3cc4c(N5CCN(C(=O)[C@H]6C[C@H](O)C6)CC5)ccnn4c3)cc2)CC1 [Compound 336]
target-or-system: ALK2 R206H (GST-tagged mutant ALK2) (Homo sapiens, UniProt Q04771, R206H)
readout-name: pIC50
assay-result: > 8.00
--
compound: COC(=O)NC1(c2ccc(-c3cc4c(N5CCN(C(=O)C6CC6)CC5)ccnn4c3)cc2)CCNCC1 [Compound 622]
target-or-system: ALK2 R206H (GST-tagged mutant ALK2) (Homo sapiens, UniProt Q04771, R206H)
readout-name: pIC50
assay-result: > 8.00
--
compound: CCN1CCN(c2ccc(-c3cc4c(N5CCN(C(=O)C6(c7cccc(Cl)c7)CC6)CC5)ccnn4c3)cc2)CC1 [Compound 447]
target-or-system: ALK2 R206H (GST-tagged mutant ALK2) (Homo sapiens, UniProt Q04771, R206H)
readout-name: pIC50
assay-result: 7.30 to 8.00
--
compound: O=C(C1CC1)N1CCN(c2ccnn3cc(-c4ccc(N5CCNCC5)cc4)cc23)CC1 [Compound 127]
target-or-system: ALK2 R206H (GST-tagged mutant ALK2) (Homo sapiens, UniProt Q04771, R206H)
readout-name: pIC50
assay-result: > 8.00

----------
target: ALK2 R206H (GST-tagged mutant ALK2) (Homo sapiens, UniProt Q04771, R206H); construct: purchased Carna Bioscience or ThermoFisher 09-148 or PV6232; assay: ALK binding assay (LANTHASCREEN TR-FRET competitive binding, displacement of Kinase Tracer 178); conditions: ALK2 R206H, LANTHASCREEN TR-FRET competitive binding; read-out: Binding Assay (IC50)
The following compounds are shown together with reported IC50 values.
readout-name: IC50

compound: CC(C)N1CCN(c2ccc(-c3cc4c(N5CCN(C(=O)[C@H]6CC[C@H](C#N)CC6)CC5)ccnn4c3)cc2)CC1
readout-name: IC50
assay-result: < 10 nM

compound: CC(C)N1CC[C@H](c2ccc(-c3cc4c(N5CCN(C(=O)C6CC6)CC5)ccnn4c3)nc2)C1
readout-name: IC50
assay-result: < 10 nM

compound: CCN1CCN(c2ccc(-c3cc4c(N5CCN(C(=O)C6CC6)CC5)ccnn4c3)nc2)CC1
readout-name: IC50
assay-result: < 10 nM

compound: CCN1CCN(c2ccc(-c3cc4c(N5CCN(C(=O)[C@H]6C[C@H]6F)CC5)ccnn4c3)cc2)CC1
readout-name: IC50
assay-result: < 10 nM

compound: CC(C)N1CC[C@H](c2ccc(-c3cc4c(N5CCN(C(=O)[C@H]6CC[C@H](O)CC6)CC5)ccnn4c3)cc2)C1
readout-name: IC50
assay-result: < 10 nM

compound: CC(C)N1CC(c2ccc(-c3cc4c(N5CCN(C(=O)C6CC6)CC5)ccnn4c3)cc2)C1
readout-name: IC50
assay-result: < 10 nM

compound: CC(C)N1CC[C@@H](c2ccc(-c3cc4c(N5CCN(C(=O)C6CC6)CC5)ccnn4c3)nc2)C1
readout-name: IC50
assay-result: < 10 nM

compound: CCN1CC2(C1)CN(c1ccc(-c3cc4c(N5CCN(C(=O)C6CC6)CC5)ccnn4c3)cc1)C2
readout-name: IC50
assay-result: < 10 nM

compound: CCOC(=O)N1CCN(c2ccnn3cc(-c4ccc([C@@H]5CCCN(C(C)C)C5)cn4)cc23)CC1
readout-name: IC50
assay-result: < 10 nM

compound: CC(C)N1CCC[C@@](F)(c2ccc(-c3cc4c(N5CCN(C(=O)OC6COC6)CC5)ccnn4c3)cc2)C1
readout-name: IC50
assay-result: < 10 nM

compound: CC(C)N1CCC(c2ccc(-c3cc4c(N5CCN(C(=O)C6CC6)CC5)ccnn4c3)c(F)c2)CC1
readout-name: IC50
assay-result: < 10 nM

compound: CC(C)N1C[C@H](c2ccc(-c3cc4c(N5CCN(C(=O)C6CC6)CC5)ccnn4c3)cc2)C[C@H]1C
readout-name: IC50
assay-result: 10 to 50 nM

compound: O=C(C1CC1)N1CCN(c2ccnn3cc(-c4ccc(C5=NCCN5)cc4)cc23)CC1
readout-name: IC50
assay-result: < 10 nM

compound: COC1(c2ccc(-c3cc4c(N5CCN(C(=O)C6CC6)CC5)ccnn4c3)nc2)CCN([C@H](C)COC(F)F)CC1
readout-name: IC50
assay-result: < 10 nM

compound: CCNC(=O)N1CCN(c2ccnn3cc(-c4ccc(C5(OC)CCN(C(C)C)CC5)c(F)c4)cc23)CC1
readout-name: IC50
assay-result: < 10 nM

compound: CC(C)NC(=O)N1CCN(c2ccnn3cc(-c4ccc(C5CCN(C(C)C)CC5)cc4F)cc23)CC1
readout-name: IC50
assay-result: < 10 nM

compound: CCOC1(c2ccc(-c3cc4c(N5CCN(C(=O)[C@H]6C[C@H](C#N)C6)CC5)ccnn4c3)nc2)CCN(C(C)C)CC1
readout-name: IC50
assay-result: < 10 nM

compound: CCOC1(c2ccc(-c3cc4c(N5CCN(C(=O)OC[C@@H](C)F)CC5)ccnn4c3)nc2)CCN(C(C)C)CC1
readout-name: IC50
assay-result: < 10 nM

compound: CC(C)NC(=O)N1CCN(c2ccnn3cc(-c4ccc(C5(C#N)CCNCC5)cc4)cc23)CC1
readout-name: IC50
assay-result: < 10 nM

compound: N[C@@H](CO)c1ccc(-c2cc3c(N4CCN(C(=O)OC5COC5)CC4)ccnn3c2)cc1
readout-name: IC50
assay-result: < 10 nM

compound: CC(C)N1CCC(c2ccc(-c3cc4c(N5CCN(C(=O)C6CCC6)CC5)ccnn4c3)cc2)C1 (centres unmarked)
readout-name: IC50
assay-result: < 10 nM

compound: CC(N)(CO)c1ccc(-c2cc3c(N4CCN(C(=O)OC5COC5)CC4)ccnn3c2)cc1 (centres unmarked)
readout-name: IC50
assay-result: < 10 nM

compound: CC(C)N1CCC(c2ncc(-c3cc4c(N5CCN(C(=O)C6CC6)CC5)ccnn4c3)cn2)CC1
readout-name: IC50
assay-result: < 10 nM

compound: CO[C@@]1(c2ccc(-c3cc4c(N5CCN(C(=O)NC(C)C)CC5)ccnn4c3)nc2)CCCNC1
readout-name: IC50
assay-result: < 10 nM

compound: CCN1CC[C@H](c2ccc(-c3cc4c(N5CCN(C(=O)C6CC6)CC5)ccnn4c3)cc2)C1
readout-name: IC50
assay-result: < 10 nM

compound: CC(C)N1CCC(c2ccc(-c3cc4c(N5CCN(C(=O)NC6COC6)CC5)ccnn4c3)cc2)CC1
readout-name: IC50
assay-result: < 10 nM

compound: O=C(C1CC1)N1CCN(c2ccnn3cc(-c4ccc(C5CCNCC5)cc4)cc23)CC1
readout-name: IC50
assay-result: < 10 nM

compound: CC(C)N1CC[C@@H](c2ccc(-c3cc4c(N5CCN(C(=O)[C@H]6C[C@H](O)C6)CC5)ccnn4c3)cc2)C1
readout-name: IC50
assay-result: < 10 nM

compound: CC(C)N1CCC[C@H](c2ccc(-c3cc4c(N5CCN(C(=O)[C@H]6CC[C@H](C#N)CC6)CC5)ccnn4c3)cc2)C1
readout-name: IC50
assay-result: < 10 nM
